Tested on: Daphnia magna (water flea)
Assay: non-target organism screening, Daphnia cumulative mortality
Assay type: in vivo
Conditions: at a dose that totally prevents fouling by mussels
Procedure: Those compounds that were determined to be highly efficacious zebra mussel antifoulants with little or no toxicity were additionally assessed for toxicity in another non-target aquatic species. […] Dead individuals were removed every 24 h and the total number of surviving individuals was recorded at the end of 1, 2, and 3 days. […]
EXPERIMENTAL_READOUT: lethal effect / toxicity towards non-target (Daphnia) organism

[
  {
    "COMPOUND": "CCCCC/C=C\\C/C=C\\C/C=C\\C/C=C\\CCCC(=O)NCCO [anandamide]",
    "VAL": "no lethal effect"
  },
  {
    "COMPOUND": "CC1=CC[C@H]2[C@@H](C1)c1c(O)cc(CC#CCCCNS(C)(=O)=O)cc1OC2(C)C",
    "VAL": "no lethal effect"
  }
]

Value source: patent US8895637B2
